assay: Tmax in CD1 mouse at 20 mg/kg, po; type: ADME, organism-based; design: dose 20 mg/kg, route oral; conditions: in vivo

{"LINE NOTATION": "O=C(O)CNC(=O)c1nc(Cl)c2c(sc3ccccc32)c1O", "UNIT TAG": "min", "Tmax": 30}

---

test: Metabolic stability in mouse microsomes assessed as compound remaining measured at 60 mins; format: ADME, Microsome; settings: read-out: Stability
EXPERIMENTAL READOUT: remaining at 1 h (%)

{"LINE NOTATION": "O=C(O)CNC(=O)c1nc(Cl)c2c(sc3ccccc32)c1O", "EXPERIMENTAL READOUT": "remaining at 1 h", "RECORDED NUMBER": 68.6}

---

test: AUC (0 to t) in CD1 mouse at 20 mg/kg, po; format: ADME, organism-based; design: dose 20 mg/kg, route oral; settings: plasma

{"LINE NOTATION": "O=C(O)CNC(=O)c1nc(Cl)c2c(sc3ccccc32)c1O", "AUC(0-t), ng·h/mL": 53700}

---

test: Metabolic stability in human S9 fraction assessed as compound remaining measured at 60 mins; format: ADME; settings: read-out: Stability
EXPERIMENTAL READOUT: remaining at 1 h (%)

{"LINE NOTATION": "O=C(O)CNC(=O)c1nc(Cl)c2c(sc3ccccc32)c1O", "EXPERIMENTAL READOUT": "remaining at 1 h", "RECORDED NUMBER": 101}

---

assay: Half life in CD1 mouse at 4 mg/kg, iv; type: ADME, organism-based; design: dose 4 mg/kg, route intravenous; settings: in vivo

{"LINE NOTATION": "O=C(O)CNC(=O)c1nc(Cl)c2c(sc3ccccc32)c1O", "half-life, h": 2.79}

---

test: Metabolic stability in human microsomes assessed as compound remaining measured at 60 mins; assay type: ADME, Microsome; details: read-out: Stability

{"LINE NOTATION": "O=C(O)CNC(=O)c1nc(Cl)c2c(sc3ccccc32)c1O", "remaining at 1 h, %": 119}

---

assay: Clearance in CD1 mouse at 4 mg/kg, iv; type: ADME, organism-based; parameters: dose 4 mg/kg, route intravenous; conditions: in vivo

{"LINE NOTATION": "O=C(O)CNC(=O)c1nc(Cl)c2c(sc3ccccc32)c1O", "UNIT TAG": "mL/min/kg", "clearance": 3.92}

---

assay: Cmax in CD1 mouse at 20 mg/kg, po; type: ADME, organism-based; set-up: dose 20 mg/kg, route oral; conditions: in vivo
EXPERIMENTAL READOUT: Cmax

{"LINE NOTATION": "O=C(O)CNC(=O)c1nc(Cl)c2c(sc3ccccc32)c1O", "RESULT": "15100 ng/mL"}

---

assay: Bioavailability in CD1 mouse at 4 mg/kg, iv; assay type: ADME, organism-based; conditions: in vivo

{"LINE NOTATION": "O=C(O)CNC(=O)c1nc(Cl)c2c(sc3ccccc32)c1O", "bioavailability (%)": 63.2}

---

assay: Volume of distribution at steady state in CD1 mouse at 4 mg/kg, iv; type: ADME, organism-based; parameters: dose 4 mg/kg, route intravenous; settings: in vivo, read-out: Vdss
EXPERIMENTAL READOUT: Vd (L/kg)

{"LINE NOTATION": "O=C(O)CNC(=O)c1nc(Cl)c2c(sc3ccccc32)c1O", "RECORDED NUMBER": 0.503}
